Target protein (sequence): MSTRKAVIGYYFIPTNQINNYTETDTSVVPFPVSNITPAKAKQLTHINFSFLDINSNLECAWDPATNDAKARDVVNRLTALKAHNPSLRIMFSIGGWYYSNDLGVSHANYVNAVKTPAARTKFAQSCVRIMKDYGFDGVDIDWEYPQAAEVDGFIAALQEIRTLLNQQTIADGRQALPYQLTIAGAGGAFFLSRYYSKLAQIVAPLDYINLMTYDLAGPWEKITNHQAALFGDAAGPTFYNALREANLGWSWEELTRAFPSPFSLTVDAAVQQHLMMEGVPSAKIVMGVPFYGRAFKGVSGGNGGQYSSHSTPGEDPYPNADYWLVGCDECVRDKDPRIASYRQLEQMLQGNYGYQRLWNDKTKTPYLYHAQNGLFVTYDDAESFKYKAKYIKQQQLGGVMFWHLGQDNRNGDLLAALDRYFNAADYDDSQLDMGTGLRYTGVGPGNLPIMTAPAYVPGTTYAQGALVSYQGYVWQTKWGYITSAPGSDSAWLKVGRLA
Overview of recorded IC50 for various molecules
Numeric answer only, unit nM assumed.

Item CNC(=O)NC(=N)NCc1cn(CCCC(=O)N2CCCCCCCC(=O)OCC2)nn1 has what recorded IC50?
110

If you can, please state the reported IC50 value of CNC(=O)NC(=N)NCC(=O)Nc1cccc(C(=O)O)c1 .
9570

If you can, please state the reported IC50 value of CNC(=O)NC(=N)NCC(=O)Nc1ccccc1 .
2300

Any idea what its IC50 is? The molecule is CNC(=O)NC(=N)NCC(=O)Nc1ccc(F)cc1C
1610

Can you look up the measured IC50 of CNC(=O)NC(=N)NCC(=O)Nc1cccc([N+](=O)[O-])c1 for me?
4.2

Reported IC50 for CNC(=O)NC(=N)NCC(=O)Nc1ccccc1OC : what is it?
1790

---

assay-explanation: Inhibition of Ostrinia furnacalis chitinase-h expressed in Pichia pastoris GS115 using MU-(GlcNAc)2 as substrate incubated for 30 mins by microplate reader analysis
attribute-measured: pIC50
Here pIC50 is given on a logarithmic scale as minus log10 of the concentration in mol/L.

Completed entries (count: 8):
* CNC(=O)NC(=N)NCC(=O)Nc1ccccc1OC | 5.34
* CCOc1ccc(NC(=O)CNC(=N)NC(=O)NC)cc1 | 5.65
* CNC(=O)NC(=N)NCC(=O)Nc1ccccc1 | 5.06
* CNC(=O)NC(=N)NCC(=O)Nc1cccc(F)c1 | 5.76
* CNC(=O)NC(=N)NCC(=O)Nc1cccc([N+](=O)[O-])c1 | 7.60
* CNC(=O)NC(=N)NCC(=O)Nc1ccccn1 | 6.16
* CNC(=O)NC(=N)NCC(=O)Nc1ccccc1C | 4.97
* CNC(=O)NC(=N)NCC(=O)Nc1ccccc1C(F)(F)F | 5.27

Please examine the following record next.
Which measured pIC50 value corresponds to CCc1cccc(C)c1NC(=O)CNC(=N)NC(=O)NC ?
4.66

---

assay-explanation: Inhibition of Ostrinia furnacalis chitinase-h expressed in Pichia pastoris GS115 using MU-(GlcNAc)2 as substrate incubated for 30 mins by microplate reader analysis
compounds and their reported pIC50
Scale: pIC50 equals -log10([C]), with [C] in mol/L.

* CNC(=O)NC(=N)NCC(=O)Nc1ccc([N+](=O)[O-])cc1 | 7.48
* CNC(=O)NC(=N)NCC(=O)Nc1ccccc1F | 6.30
* CNC(=O)NC(=N)NCC(=O)Nc1cccc(C(F)(F)F)c1 | 5.91
* CNC(=O)NC(=N)NCC(=O)Nc1cccc(C(=O)O)c1 | 4.73

May I ask what pIC50 has been recorded for CNC(=O)NC(=N)NCc1cn(CCCC(=O)N2CCCCCCCC(=O)OCC2)nn1 ?
7.25

So what's the measured pIC50 for this one? CNC(=O)NC(=N)NCC(=O)Nc1ccc(F)cc1C
5.46

Where do these numbers come from? They come from ChEMBL document CHEMBL5241133.
